# Assay: pKHB (hydrogen bond basicity of the heterocycle) was determined
Readout: pKHB

Molecule: NCCCCCOC[C@H]1O[C@@H](OCCc2c[nH]c3ccccc23)[C@H](OCc2ccccc2)[C@@H](OCc2ccccc2)[C@@H]1OCc1ccccn1
pKHB: 1.86

[A] Cc1ccc(CO[C@H]2[C@H](OCc3ccccc3)[C@@H](OCc3ccccc3)[C@H](OCCc3c[nH]c4ccccc34)O[C@@H]2COCCCCCN)cn1
[B] NCCCCCOC[C@H]1O[C@@H](OCCc2c[nH]c3ccccc23)[C@H](OCc2ccccc2)[C@@H](OCc2ccccc2)[C@@H]1OCc1cnccn1
Data request: For the two items A and B , which reports the higher pKHB value? Answer format: the label of the selected item.
Data returned: B
(B: 1.95, A: 1.05)

[I] NCCCCCOC[C@H]1O[C@@H](OCCc2c[nH]c3ccccc23)[C@H](OCc2ccccc2)[C@@H](OCc2ccccc2)[C@@H]1OCc1ccc(F)nc1
[II] NCCCCCOC[C@H]1O[C@@H](OCCc2c[nH]c3ccccc23)[C@H](OCc2ccccc2)[C@@H](OCc2ccccc2)[C@@H]1OCc1ccncc1
Data request: Which item exceeds the other in pKHB, I or II ? Lab note: record the label of whichever item you select.
Data returned: II
(II: 1.86, I: 0.95)

----------
Target or system Somatostatin receptor type 2 (Homo sapiens); recorded quantity pIC50.
pIC50: −log10 of the molar value.
Readout: pIC50

[P] NCCCCCOC[C@H]1O[C@@H](OCCc2c[nH]c3ccccc23)[C@H](OCc2cnc[nH]2)[C@@H](OCc2ccccc2)[C@@H]1OCc1cccnc1
[Q] NCCCCCOC[C@@H]1O[C@H](OCCc2c[nH]c3ccccc23)[C@H](OCc2cnc[nH]2)C(OCc2ccccc2)[C@H]1OCc1ccccc1 (single isomer, unassigned; (+))
Data request: Lower pIC50: P or Q ? Indicate your choice by writing its label.
Data returned: P

----------
# Target Under Test: Substance-P receptor (Homo sapiens, UniProt P25103)
# Sequence (P25103 whole entry): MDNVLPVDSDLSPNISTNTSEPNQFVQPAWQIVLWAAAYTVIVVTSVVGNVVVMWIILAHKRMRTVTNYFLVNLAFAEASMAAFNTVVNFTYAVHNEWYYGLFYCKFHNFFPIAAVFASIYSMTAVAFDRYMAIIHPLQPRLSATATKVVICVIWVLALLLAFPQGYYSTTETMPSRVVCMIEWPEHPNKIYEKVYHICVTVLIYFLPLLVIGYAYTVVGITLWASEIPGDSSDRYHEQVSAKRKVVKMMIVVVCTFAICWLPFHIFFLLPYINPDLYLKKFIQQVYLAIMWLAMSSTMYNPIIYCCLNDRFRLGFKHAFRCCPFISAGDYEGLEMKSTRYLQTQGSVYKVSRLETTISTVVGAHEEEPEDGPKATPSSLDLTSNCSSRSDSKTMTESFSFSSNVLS
Readout: pKi
Please treat pKi as minus the base-10 logarithm of the molar concentration.

Data request: What does the data say about its pKi? Entry: CC(=O)NCCCCCOC[C@H]1O[C@@H](OCCc2c[nH]c3ccccc23)[C@H](OCc2ccccc2)[C@@H](OCc2ccccc2)[C@@H]1O
Data returned: 7.57

----------
# Assay: pKa was determined
# Format: physicochemical
Readout: pKa

Molecule: NCCCCCOC[C@H]1O[C@@H](OCCc2c[nH]c3ccccc23)[C@H](OCc2ccccc2)[C@@H](OCc2ccccc2)[C@@H]1OCc1ccncc1
pKa: 5.2

[I] NCCCCCOC[C@H]1O[C@@H](OCCc2c[nH]c3ccccc23)[C@H](OCc2ccccc2)[C@@H](OCc2ccccc2)[C@@H]1OCc1ccccn1
[II] NCCCCCOC[C@H]1O[C@@H](OCCc2c[nH]c3ccccc23)[C@H](OCc2ccccc2)[C@@H](OCc2ccccc2)[C@@H]1OCc1ccc(F)nc1
Data request: Which gives the smaller pKa number: I or II ? Pick one and reply with its label.
Data returned: II

----------
# Assay: pKa was determined
# Type: physicochemical
Readout: pKa

[a] NCCCCCOC[C@H]1O[C@@H](OCCc2c[nH]c3ccccc23)[C@H](OCc2ccccc2)[C@@H](OCc2ccccc2)[C@@H]1OCc1cnccn1
[b] NCCCCCOC[C@H]1O[C@@H](OCCc2c[nH]c3ccccc23)[C@H](OCc2ccccc2)[C@@H](OCc2ccccc2)[C@@H]1OCc1cccnc1
Data request: I'd appreciate it if you could identify which of a and b has the greater pKa. Answer format: the label of the selected item.
Data returned: b

[a] NCCCCCOC[C@H]1O[C@@H](OCCc2c[nH]c3ccccc23)[C@H](OCc2ccccc2)[C@@H](OCc2ccccc2)[C@@H]1OCc1c[nH]cn1
[b] NCCCCCOC[C@H]1O[C@@H](OCCc2c[nH]c3ccccc23)[C@H](OCc2ccccc2)[C@@H](OCc2ccccc2)[C@@H]1OCc1ccc(Cl)nc1
Data request: Consider a and b . Which of these has its pKa at a higher number? Give the label of your selection.
Data returned: a
(a: 7.2, b: 0.5)
